target: renin (Homo sapiens, UniProt P00797); assay: in vitro renin inhibitory activity, radioimmunoassay for angiotensin I; format: biochemical
Consider the following partition of reported IC50 into named classes: low-valued = under 30 nM, mid-valued = from 30 nM up to 100 nM, high-valued = 100 nM and over

Answered examples (3):
INSERT INTO measurements (compound, classification) VALUES
  ('CC(C)C[C@H](NC(=O)C[C@H](O)[C@H](CC(C)C)NC(=O)C(CCCC1CO1)NC(=O)C(Cc1cccc2ccccc12)Cc1cccc2ccccc12)C(=O)NCc1ccccc1 (single isomer, unassigned) [drawing 65]', 'mid-valued'),
  ('CC[C@H](C)CNC(=O)C[C@H](O)[C@H](CC(C)C)NC(=O)[C@H](CCCCn1cccc1)NC(=O)C(Cc1cccc2ccccc12)Cc1cccc2ccccc12', 'mid-valued'),
  ('CCC(C)CNC(=O)C[C@H](O)[C@H](CC(C)C)NC(=O)C(C/C=C/CNC(=S)NC)NC(=O)C(Cc1cccc2ccccc12)Cc1cccc2ccccc12 (stereo partly drawn)', 'mid-valued');

We now examine a further compound.
Task: // return the class label for `CNC(=S)NCCCC[C@H](NC(=O)C(Cc1cccc2ccccc12)Cc1cccc2ccccc12)C(=O)N[C@@H](CC(C)C)[C@@H](O)CC(=O)N[C@@H](CC(C)C)C(=O)NCc1ccccc1`
Result: mid-valued

====

target: renin (Homo sapiens); test: in vitro renin inhibitory activity, radioimmunoassay for angiotensin I; assay type: biochemical; settings: read-out: IC50
Reported log10 of IC50 values are given for each entry in this list.
A difference of one corresponds to tenfold IC50; all values are log10 with IC50 in nM.

Solved entries:
INSERT INTO measurements (molecule, measured_value) VALUES
  ('CCC(C)CNC(=O)C[C@H](O)[C@H](CC(C)C)NC(=O)C(NC(=O)C(Cc1cccc2ccccc12)Cc1cccc2ccccc12)C(=O)OC(C)C (stereo partly drawn)', 1.52),
  ('CNC(=S)NCCCC[C@H](NC(=O)C(Cc1cccc2ccccc12)Cc1cccc2ccccc12)C(=O)N[C@@H](CC1CCCCC1)[C@@H](O)CC(=O)NCCN1CCOCC1', 1.46),
  ('CC[C@H](C)CNC(=O)C[C@H](O)[C@H](CC(C)C)NC(=O)[C@H](CCCCNC(=O)CS(C)(=O)=O)NC(=O)C(Cc1cccc2ccccc12)Cc1cccc2ccccc12', 1.83),
  ('CCOC(=O)C(NC(=O)C(Cc1cccc2ccccc12)Cc1cccc2ccccc12)C(=O)N[C@@H](CC(C)C)[C@@H](O)CC(=O)N[C@@H](CC(C)C)C(=O)NCc1ccccn1 (stereo partly drawn)', 1.11),
  ('CCC(C)CNC(=O)C[C@H](O)[C@H](CC(C)C)NC(=O)[C@H](CCCCNC(=S)NC(C)(C)CC)NC(=O)C(Cc1cccc2ccccc12)Cc1cccc2ccccc12 (stereo partly drawn)', 0.88);

Could you now look at the following molecule, please?
Task: May I ask what log10 of IC50 has been recorded for CCC(C)CNC(=O)C[C@H](O)[C@H](CC(C)C)NC(=O)C(CCCCCNC(=S)NC)NC(=O)C(Cc1cccc2ccccc12)Cc1cccc2ccccc12 (stereo partly drawn) ?
Result: 1.60

====

target: renin (Homo sapiens); test: in vitro renin inhibitory activity, radioimmunoassay for angiotensin I; format: biochemical; conditions: read-out: IC50
measure_name: IC50 (nM)
Give the value in nM but do not write nM after it.

Solved entries:
INSERT INTO results (compound, unit_info, measured_value) VALUES
  ('CC[C@H](C)CNC(=O)C[C@H](O)[C@H](CC(C)C)NC(=O)[C@H](CCCCNC(=S)NCC(C)(C)C)NC(=O)C(Cc1cccc2ccccc12)Cc1cccc2ccccc12', 'nM', 450),
  ('CNC(=S)NCCCC[C@H](NC(=O)C(CC(=O)N1CCOCC1)Cc1cccc2ccccc12)C(=O)N[C@@H](CC1CCCCC1)[C@@H](O)CC(=O)NCCN1CCOCC1 (stereo partly drawn)', 'nM', 20);

Task: May I ask what IC50 has been recorded for CCC(C)CNC(=O)C[C@H](O)[C@H](CC(C)C)NC(=O)[C@H](CCCCNC(=NC#N)NC)NC(=O)C(Cc1cccc2ccccc12)Cc1cccc2ccccc12 (stereo partly drawn) ?
Result: 15

====

biological target: UniProtKB P00797; assay: in vitro renin inhibitory activity, radioimmunoassay for angiotensin I; assay type: biochemical; conditions: read-out: IC50
measure_name: pIC50
Value format note: pIC50 is -log10 of concentration (mol/L); just state the number.

INSERT INTO measurements (compound, system_under_test, measured_value) VALUES
  ('CC(C)C[C@H](NC(=O)C[C@H](O)[C@H](CC(C)C)NC(=O)[C@H](CCCN1C(=O)c2ccccc2C1=O)NC(=O)[C@H](Cc1ccccc1)NC(=O)OC(C)(C)C)C(=O)NCc1ccccc1', 'UniProtKB P00797', 6.04),
  ('CSC(=NC#N)NCCCC[C@H](NC(=O)C(Cc1cccc2ccccc12)Cc1cccc2ccccc12)C(=O)N[C@@H](CC(C)C)[C@@H](O)CC(=O)NCCN1CCOCC1', 'UniProtKB P00797', 7.05),
  ('CC[C@H](C)CNC(=O)C[C@H](O)[C@H](CC(C)C)NC(=O)[C@H](CCCCNC(=O)OC)NC(=O)C(Cc1cccc2ccccc12)Cc1cccc2ccccc12', 'UniProtKB P00797', 7.22),
  ('CC(C)(C)OC(=O)NCC#CCC(NC(=O)C(Cc1cccc2ccccc12)Cc1cccc2ccccc12)C(=O)N[C@@H](CC1CCCCC1)[C@@H](O)CC(=O)NCCN1CCOCC1 (stereo partly drawn)', 'UniProtKB P00797', 6.15);

Task: May I ask what pIC50 has been recorded for CNC(=S)NCCCC[C@H](NC(=O)C(CC(=O)N1CCOCC1)Cc1cccc2ccccc12)C(=O)N[C@@H](CC(C)C)[C@@H](O)CC(=O)NCCN1CCOCC1 (stereo partly drawn) ?
Result: 6.25

Task: May I ask what pIC50 has been recorded for CCC(C)CNC(=O)C[C@H](O)[C@H](CC(C)C)NC(=O)[C@H](CCCCNC(=O)NC)NC(=O)C(Cc1cccc2ccccc12)Cc1cccc2ccccc12 (stereo partly drawn) ?
Result: 7.54

====

Biological target: UniProtKB P00797
Sequence (P00797 67-406): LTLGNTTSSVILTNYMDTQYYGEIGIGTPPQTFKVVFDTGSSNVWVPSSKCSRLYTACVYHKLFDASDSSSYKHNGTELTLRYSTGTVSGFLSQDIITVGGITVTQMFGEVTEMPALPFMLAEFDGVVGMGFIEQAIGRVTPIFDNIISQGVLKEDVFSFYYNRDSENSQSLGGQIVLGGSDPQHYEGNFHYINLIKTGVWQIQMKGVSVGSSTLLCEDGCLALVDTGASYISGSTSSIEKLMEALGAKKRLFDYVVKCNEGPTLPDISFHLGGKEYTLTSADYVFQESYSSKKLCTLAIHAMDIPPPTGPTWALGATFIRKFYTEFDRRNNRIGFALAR
Experiment: in vitro renin inhibitory activity, radioimmunoassay for angiotensin I
Format: biochemical
Settings: read-out: IC50
measure_name: pIC50
Value format note: pIC50 is -log10 of concentration (mol/L); just state the number.

Solved entries:
INSERT INTO results (compound, measured_value) VALUES
  ('CSC(=NC#N)NCCCC[C@H](NC(=O)C(CC(=O)N1CCOCC1)Cc1cccc2ccccc12)C(=O)N[C@@H](CC(C)C)[C@@H](O)CC(=O)NCCN1CCOCC1 (stereo partly drawn)', 6.46),
  ('N=C(NCC#CCC(NC(=O)C(Cc1cccc2ccccc12)Cc1cccc2ccccc12)C(=O)N[C@@H](CC1CCCCC1)[C@@H](O)CC(=O)NCCN1CCOCC1)N[N+](=O)[O-] (stereo partly drawn)', 7.92);

Could you now look at the following compound, please?
Task: May I ask what pIC50 has been recorded for `CC[C@H](C)CNC(=O)C[C@H](O)[C@H](CC(C)C)NC(=O)[C@H](CCCNC(=S)NC)NC(=O)C(Cc1cccc2ccccc12)Cc1cccc2ccccc12` ?
Result: 6.55

====

biological target: renin (Homo sapiens); test: in vitro renin inhibitory activity, radioimmunoassay for angiotensin I; type: biochemical; conditions: read-out: IC50
Reported pIC50 values are given for each entry in this list.
Value format note: pIC50 is -log10 of concentration (mol/L); just state the number.

Solved entries:
INSERT INTO assay_data (molecule, measured_value) VALUES
  ('CC[C@H](C)CNC(=O)C[C@H](O)[C@H](CC(C)C)NC(=O)[C@H](CCCNC(=O)NC)NC(=O)C(Cc1cccc2ccccc12)Cc1cccc2ccccc12', 6.05),
  ('CCOC(=O)C(NC(=O)C(Cc1cccc2ccccc12)Cc1cccc2ccccc12)C(=O)N[C@@H](CC(C)C)[C@@H](O)CC(=O)NC[C@@H](C)CC (stereo partly drawn)', 7.64);

Could you now look at the following molecule, please?
Task: May I ask what pIC50 has been recorded for `CC[C@H](C)CNC(=O)C[C@H](O)[C@H](CC(C)C)NC(=O)[C@H](CCCCNC(=S)NC)NC(=O)C(Cc1cccc2ccccc12)Cc1cccc2ccccc12` ?
Result: 8.02
